Taken from patent US8614327B2.

# study-system: ΔF508-CFTR (Homo sapiens, UniProt P13569, DEL508-508)
# Construct: expressed in transfected cells
# Sequence (P13569 with tags, fused parts or gaps DEL508-508): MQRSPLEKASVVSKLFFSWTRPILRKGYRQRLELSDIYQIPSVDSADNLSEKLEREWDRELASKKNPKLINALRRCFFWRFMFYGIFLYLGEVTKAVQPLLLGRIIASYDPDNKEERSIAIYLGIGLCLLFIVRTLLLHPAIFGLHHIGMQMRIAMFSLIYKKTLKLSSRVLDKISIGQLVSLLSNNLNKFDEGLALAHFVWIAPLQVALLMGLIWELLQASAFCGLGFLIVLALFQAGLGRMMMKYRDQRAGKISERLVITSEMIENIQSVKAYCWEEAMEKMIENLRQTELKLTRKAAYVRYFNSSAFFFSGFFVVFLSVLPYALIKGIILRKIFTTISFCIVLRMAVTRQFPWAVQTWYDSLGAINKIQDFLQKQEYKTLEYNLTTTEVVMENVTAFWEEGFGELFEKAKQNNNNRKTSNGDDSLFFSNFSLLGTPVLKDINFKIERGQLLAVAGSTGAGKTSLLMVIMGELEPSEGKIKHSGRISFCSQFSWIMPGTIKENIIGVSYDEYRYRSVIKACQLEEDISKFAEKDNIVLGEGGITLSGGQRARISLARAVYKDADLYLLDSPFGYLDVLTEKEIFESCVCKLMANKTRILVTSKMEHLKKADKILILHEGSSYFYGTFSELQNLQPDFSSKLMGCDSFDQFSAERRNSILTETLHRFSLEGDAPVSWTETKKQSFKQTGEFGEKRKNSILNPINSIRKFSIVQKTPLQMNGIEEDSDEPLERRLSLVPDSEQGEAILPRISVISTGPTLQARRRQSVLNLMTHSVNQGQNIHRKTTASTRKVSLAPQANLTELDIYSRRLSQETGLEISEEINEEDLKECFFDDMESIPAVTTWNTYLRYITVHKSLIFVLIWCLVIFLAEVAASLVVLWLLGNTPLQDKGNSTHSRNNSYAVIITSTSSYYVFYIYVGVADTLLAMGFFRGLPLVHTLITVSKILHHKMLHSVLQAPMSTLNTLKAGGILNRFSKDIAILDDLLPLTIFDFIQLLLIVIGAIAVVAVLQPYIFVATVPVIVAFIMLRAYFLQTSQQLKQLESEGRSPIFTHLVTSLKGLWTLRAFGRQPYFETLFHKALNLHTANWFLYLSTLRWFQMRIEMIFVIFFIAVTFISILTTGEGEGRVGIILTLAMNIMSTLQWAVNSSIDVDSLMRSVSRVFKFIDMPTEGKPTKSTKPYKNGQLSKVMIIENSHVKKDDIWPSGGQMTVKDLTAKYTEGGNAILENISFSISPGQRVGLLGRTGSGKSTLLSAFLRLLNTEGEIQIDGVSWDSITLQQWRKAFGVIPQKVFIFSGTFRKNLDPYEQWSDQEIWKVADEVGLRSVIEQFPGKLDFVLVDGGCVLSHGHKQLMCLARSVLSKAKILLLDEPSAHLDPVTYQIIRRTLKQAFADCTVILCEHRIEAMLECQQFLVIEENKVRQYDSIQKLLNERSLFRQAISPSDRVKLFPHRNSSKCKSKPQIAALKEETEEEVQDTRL
# experiment-description: Membrane potential optical (FRET/VIPR) assay, identification of potentiator compounds
# Assay type: cell-based
# measurement-setup: Table 3; relative efficacy; assay not given
endpoint-name: % Activity

Some molecules with recorded % Activity:
[
  {
    "line-notation": "O=C(Nc1ccccc1-c1cc(Cl)ccc1Cl)c1c[nH]c2ccccc2c1=O",
    "% Activity": "++ (between 25% to 100%)"
  },
  {
    "line-notation": "COc1cc(C#N)c(NC(=O)c2c[nH]c3ccccc3c2=O)cc1OC",
    "% Activity": "+ (<25%)"
  },
  {
    "line-notation": "O=C(Nc1ccc(OC(F)(F)F)c(N2CCCC2)c1)c1c[nH]c2ccccc2c1=O",
    "% Activity": "++ (between 25% to 100%)"
  },
  {
    "line-notation": "O=C(Nc1ccc2cc[nH]c2c1)c1c(C(F)(F)F)[nH]c2ccccc2c1=O",
    "% Activity": "+ (<25%)"
  },
  {
    "line-notation": "O=C(Nc1ccccc1-c1csc2ccccc12)c1c[nH]c2ccccc2c1=O",
    "% Activity": "++ (between 25% to 100%)"
  }
]

Write % Activity of `O=C(Nc1ccc(N2CCOCC2)nc1)c1c[nH]c2ccccc2c1=O` ; system used: ΔF508-CFTR (Homo sapiens, UniProt P13569, DEL508-508)
+ (<25%)

Enter recorded % Activity with ΔF508-CFTR (Homo sapiens, UniProt P13569, DEL508-508) for `N#Cc1cc2ccc(NC(=O)c3c[nH]c4ccccc4c3=O)cc2[nH]1` here.
++ (between 25% to 100%)

Provide % Activity, recorded with ΔF508-CFTR (Homo sapiens, UniProt P13569, DEL508-508), of `CCOc1ccccc1-c1cc(C(C)(C)C)c(O)cc1NC(=O)c1c[nH]c2ccccc2c1=O`
++ (between 25% to 100%)

* * *

# study-system: ΔF508-CFTR (Homo sapiens, UniProt P13569, DEL508-508)
# Construct: expressed in transfected cells
# experiment-description: Membrane potential optical (FRET/VIPR) assay, identification of potentiator compounds
# Format: cell-based
# measurement-setup: Table 3; relative efficacy; assay not given
# Excerpt: […]
endpoint-name: % Activity

For orientation, consider the following solved cases.
[
  {
    "compound": "CC(C)(C)c1cc(C(C)(C)C)c(NC(=O)c2c[nH]c3c(C#N)cccc3c2=O)cc1O [Compound 505]",
    "% Activity": "+ (<25%)"
  },
  {
    "compound": "O=C(Nc1ccc(-c2ccccc2)cc1)c1c[nH]c2ccccc2c1=O [Compound 397]",
    "% Activity": "++ (between 25% to 100%)"
  },
  {
    "compound": "CCc1cccc(C(C)C)c1NC(=O)c1c[nH]c2ccccc2c1=O [Compound 314]",
    "% Activity": "++ (between 25% to 100%)"
  },
  {
    "compound": "O=C(Nc1ccc(N2CCCC2)cc1C(F)(F)F)c1c[nH]c2ccccc2c1=O [Compound 658]",
    "% Activity": "++ (between 25% to 100%)"
  },
  {
    "compound": "O=C(Nc1cc2ccccc2cn1)c1c[nH]c2ccccc2c1=O [Compound 309]",
    "% Activity": "+ (<25%)"
  },
  {
    "compound": "Cc1cccnc1NC(=O)c1c[nH]c2ccccc2c1=O [Compound 192]",
    "% Activity": "+ (<25%)"
  }
]

Please give the documented % Activity of CCOc1cccc2c(=O)c(C(=O)Nc3cc(O)c(C(C)(C)C)cc3F)c[nH]c12 [Compound 526]
+ (<25%)

Supply measured % Activity of CC(C)(C)c1cc(C(C)(C)C)c(NC(=O)c2c[nH]c3cc(O)ccc3c2=O)cc1O [Compound 652] in your reply.
++ (between 25% to 100%)

# return recorded % Activity for entry O=C(Nc1ccc(C(F)(F)F)c(O)c1)c1c[nH]c2ccc(F)cc2c1=O [Compound 650]
++ (between 25% to 100%)
